# MEASUREMENT_NOTES: qHTS assay to identify small molecule agonists of the androgen receptor (AR) signaling pathway in the presence of an antagonist - cell viability counter screen (AID 1259379); also: nearly all actives have a fitted effect of over 25% in size
# MEASUREMENT_SETUP: MDA-kb2 viability, CellTiter-Fluor, 16 h; series mostly up to 92.4 µM
Results filed as inconclusive are left out. Activity calls are given as the source filed them. Calls follow the shape of the dose curve; as a rule, active = well fitted cell-killing curve with a large enough effect in the repeat runs; inconclusive = weak or mixed curves, or effect the other way; inactive = flat fitted curve, though single readings scatter.
Valid outcomes are listed here; reply with one: Y (active), N (inactive)

State the result this test recorded for O=C(N[C@H](CO)[C@H](O)c1ccc([N+](=O)[O-])cc1)C(Cl)Cl .
N

Please give the result for CC(=O)CC(N)=O too.
N

Follow-up entry: COc1cc([C@@H]2c3cc4c(cc3[C@@H](O[C@@H]3O[C@@H]5CO[C@@H](C)O[C@H]5[C@H](O)[C@H]3O)[C@H]3COC(=O)[C@H]23)OCO4)cc(OC)c1O
N

Let us now turn to CCCCCCCCc1ccc(Nc2ccc(CCCCCCCC)cc2)cc1
N

Can you check O=C(Nc1ccc([N+](=O)[O-])cc1)Nc1ccc([N+](=O)[O-])cc1 (tested in a mixture with another compound) next?
N

Please answer likewise for CC(C)=NNC(N)=S
N

CC(C)(C)c1ccc(OC2CCCCC2O)cc1 (stereo not given) ?
N

Can you handle Cc1ccc(N=Nc2c(O)ccc3ccccc23)c(C)c1 next?
Y

Also check ClC(c1ccccc1)(c1ccccc1)c1ccccc1
N

# iterate: Nc1ccc(F)c([N+](=O)[O-])c1
N

Another compound: Nc1ccc(N)c([N+](=O)[O-])c1
Y

What do we get for Cc1ccc(C2OC[C@@H]3OC(c4ccc(C)cc4)O[C@H]([C@H](O)CO)[C@@H]3O2)cc1 (stereo not given in full) ?
N

Follow-up entry: C/C(=C\c1ccc(C(=O)O)cc1)c1ccc2c(c1)C(C)(C)CCC2(C)C
N

Same again, this time with C=COCCCC
N

# iterate: CSc1ccc(O)cc1C
N

Then Cn1c(=O)[nH]c2ncn(C)c2c1=O ?
N

Proceed to CC(CC(C)(C)C)CC(C)(C)CC(C)(C)C (stereo not given)
N

Follow-up item: CCC(C)(C)c1ccc(CC(C)CN2C[C@@H](C)O[C@@H](C)C2)cc1 (stereo not given in full)
N

Entry CCOC(=O)[C@H](C)O please
N

Likewise for c1ccc(-c2ccc(C(c3ccccc3)n3ccnc3)cc2)cc1 (stereo not given) ?
N

Now this one: O=[N+]([O-])c1ccc(CO)cc1
N

Can you check CC1=CC[C@@H](C(C)(C)O)CC1 next?
N

// next record Cc1ccc(Cl)c(N)c1Cl
N

What about Cc1ccc(S(=O)(=O)C(I)I)cc1 ?
Y

Also, c1ccc2cc3c4ccccc4c4ccccc4c3cc2c1 please.
N
